Please respond with reported log10 of MIC for every item in the list.
test system: Proteus vulg. 1017; test: MIC, liquid medium test tube series dilution test; type: cell-based, Proteus vulgaris; details: Proteus vulg. 1017, 24 hours, 37°C
Hey, these are logged values: log10 of MIC, units/ml being the unit before logging.

Qu. // query log10 of MIC value for entry CC(=O)N(C)C(=O)NC(C(=O)N[C@@H]1C(=O)N2[C@@H]1SC(C)(C)[C@@H]2C(=O)O)c1ccc(Cl)cc1 (stereo partly shown)
Ans. 2.00

Qu. // query log10 of MIC value for entry CN(C(=O)C=Cc1ccccc1)C(=O)N[C@@H](C(=O)N[C@@H]1C(=O)N2[C@@H]1SC(C)(C)[C@@H]2C(=O)O)c1ccccc1
Ans. 0.19

Qu. // query log10 of MIC value for entry C=CCN(C(C)=O)C(=O)N[C@@H](C(=O)N[C@@H]1C(=O)N2[C@@H]1SC(C)(C)[C@@H]2C(=O)O)c1ccccc1 [Example 86]
Ans. 1.70

Qu. // query log10 of MIC value for entry CN(C(=O)N[C@@H](C(=O)N[C@@H]1C(=O)N2[C@@H]1SC(C)(C)[C@@H]2C(=O)O)c1ccccc1)C(=O)N1CCCCC1
Ans. 1.70

Qu. // query log10 of MIC value for entry CN(C(=O)CCCCl)C(=O)N[C@@H](C(=O)N[C@@H]1C(=O)N2[C@@H]1SC(C)(C)[C@@H]2C(=O)O)c1ccccc1 [Example 24]
Ans. 2.00

Qu. // query log10 of MIC value for entry COC(=O)N(C)C(=O)N[C@@H](C(=O)N[C@@H]1C(=O)N2[C@@H]1SC(C)(C)[C@@H]2C(=O)O)c1ccccc1
Ans. 1.70

Qu. // query log10 of MIC value for entry C=CCN(C(=O)N[C@@H](C(=O)N[C@@H]1C(=O)N2[C@@H]1SC(C)(C)[C@@H]2C(=O)O)c1ccccc1)C(=O)c1ccccc1
Ans. 1.10

Qu. // query log10 of MIC value for entry CN(C(=O)CCCl)C(=O)N[C@@H](C(=O)N[C@@H]1C(=O)N2[C@@H]1SC(C)(C)[C@@H]2C(=O)O)c1ccccc1
Ans. 1.40

Qu. // query log10 of MIC value for entry CN(C(=O)N[C@@H](C(=O)N[C@@H]1C(=O)N2[C@@H]1SC(C)(C)[C@@H]2C(=O)O)c1ccccc1)C(=O)OC1CCCCC1 [Example 67]
Ans. 0.80

Qu. // query log10 of MIC value for entry CC(=O)N(C)C(=O)NC(C(=O)N[C@@H]1C(=O)N2[C@@H]1SC(C)(C)[C@@H]2C(=O)O)c1ccc(C)cc1 (stereo partly shown)
Ans. 2.00

Qu. // query log10 of MIC value for entry CSc1ccc(C(NC(=O)N2CCNC2=O)C(=O)N[C@@H]2C(=O)N3[C@@H]2SC(C)(C)[C@@H]3C(=O)O)cc1 (stereo partly shown) [Example 55]
Ans. 2.00
